Would you mind telling me the reported Percentage of motility inhibition 0 h of each entry?
# Test system: C. elegans
# CONDITION: Table S2, C. elegans SS assay, 110 μM, 0 h, averages of 4 data points
One number for each entry, in %.

Here's what some known entries look like.
INSERT INTO assay_data (compound, readout_kind, readout_number) VALUES
  ('CCCN1C[C@H](C)[C@@H](O)[C@](C)(O)[C@@H](CC)OC(=O)[C@H](C)[C@@H](O[C@H]2C[C@@](C)(OC)[C@@H](O)[C@H](C)O2)[C@H](C)[C@@H](O[C@@H]2O[C@H](C)C[C@H](N(C)C)[C@H]2O)[C@](C)(O)C[C@H]1C', 'Percentage of motility inhibition 0 h', 37),
  ('CS(=O)(=O)O.C[C@H]1NCc2cc(-c3ccc4c(=O)c(C(=O)O)cn(C5CC5)c4c3OC(F)F)ccc21.O [Garenoxacin (Mesylate hydrate)]', 'Percentage of motility inhibition 0 h', 61),
  ('CCCCCCCCCCCCCCCCCC(=O)NCc1ccccc1 [N‐Benzyloctadecanamide]', 'Percentage of motility inhibition 0 h', 35),
  ('C[C@H](CC[C@@H](O[C@@H]1O[C@H](CO)[C@@H](O)[C@H](O)[C@H]1O[C@H]1O[C@@H](CO)[C@H](O)[C@@H](O)[C@@H]1O)C(C)(C)O)C1CC[C@@]2(C)C3CC=C4C(CC[C@H](O)C4(C)C)[C@]3(C)C(=O)C[C@]12C (some centres unmarked) [11-Oxomogroside IIa]', 'Percentage of motility inhibition 0 h', 0);

For the next question, use this compound.
Look up Percentage of motility inhibition 0 h for this compound: COc1cc(/C=C/C(=O)NCCc2ccc(O)cc2)ccc1O [N‐trans‐Feruloyltyramine]
5

----------
# System: C. elegans
# PROCEDURE TEXT: microbe, parasite or virus in culture
# CONDITION: Caenorhabditis elegans, 24 h, read-out: Percentage of motility inhibition 24 h, Table S2, C. elegans SS assay, 110 μM, 24 h, averages of 4 data points
Binary call on inhibition at 110 µM: TRUE from 2% upward, FALSE beneath that.

INSERT INTO results (compound, measured_target, group) VALUES
  ('COC(=O)C1=CO[C@@H](O[C@@H]2O[C@H](CO)[C@@H](O)[C@H](O)[C@H]2O)[C@@H]2[C@@H](C)[C@@H](O)C[C@H]12', 'C. elegans', 'TRUE');

# bool: inhibition at 110 µM of CCCCCCCCCCOc1cc2c(O)c(C(=O)OCC)cnc2cc1OCC [Decoquinate] >= 2%
FALSE

What would you report for CC(C)c1ccc2c(c1O)CC[C@H]1C3=C(CC[C@]21C)C(=O)OC3 [Triptophenolide] ?
TRUE

What would you report for `O=C1CN(/N=C/C=C/c2ccc([N+](=O)[O-])o2)C(=O)N1` ?
FALSE

----------
# Test system: C. elegans
# PROCEDURE TEXT: microbe, parasite or virus in culture
# CONDITION: Caenorhabditis elegans, 0 h, read-out: Percentage of motility inhibition 0 h, Table S2, C. elegans SS assay, 110 μM, 0 h, averages of 4 data points
Binary call on inhibition at 110 µM: 1 from 1% upward, 0 beneath that.

Worked examples follow.
INSERT INTO measurements (compound, group) VALUES
  ('Cc1cc(C(C#N)c2ccc(Cl)cc2)c(Cl)cc1NC(=O)c1cc(I)cc(I)c1O (stereo not shown)', 1),
  ('O=c1cc(-c2ccccc2)oc2cc(O)cc(O)c12', 1),
  ('CC1CCc2c(N3CCC(O)CC3)c(F)cc3c(=O)c(C(=O)O)cn1c23 (stereo not shown)', 0),
  ('O=C1C=C2C=C[C@@H]3C[C@@]2(O1)[C@H]1CCCCN31', 0),
  ('CC(=O)C1=C(O)[C@@H]2[C@H]3c4c[nH]c5cccc(c45)C[C@H]3C(C)(C)N2C1=O', 1);

# bool: inhibition at 110 µM of `c1cncc([C@@H]2CCCCN2)c1` >= 1%
0

What would you report for `C=C(NC(=O)C(=C)NC(=O)c1csc(C2=N[C@@H]3c4csc(n4)[C@H]4NC(=O)c5csc(n5)[C@H]([C@](C)(O)[C@@H](C)O)NC(=O)[C@H]5CSC(=N5)/C(=C/C)NC(=O)[C@H]([C@@H](C)O)NC(=O)c5csc(n5)[C@]3(CC2)NC(=O)[C@H](C)NC(=O)C(=C)NC(=O)[C@H](C)NC(=O)[C@H]([C@@H](C)CC)N[C@@H]2C=Cc3c([C@H](C)O)cc(nc3[C@H]2O)C(=O)O[C@@H]4C)n1)C(N)=O` ?
1

What would you report for `CC(C)[C@]12CC(=O)[C@H](C)[C@H]1C2` ?
1

What would you report for `O=C(O)CCCc1c[nH]c2ccccc12` ?
1

What would you report for `COc1ccc(-c2cc(=O)c3c(O)c(OC)c(O)c(OC)c3o2)cc1` ?
1

----------
# System: C. elegans
# PROCEDURE TEXT: microbe, parasite or virus in culture
# CONDITION: Caenorhabditis elegans, 24 h, read-out: Percentage of motility inhibition 24 h, Table S2, C. elegans SS assay, 110 μM, 24 h, averages of 4 data points
READOUT KIND: inhibition at 110 µM (%)
Answers are plain numbers, in %.

Here's what some known entries look like.
INSERT INTO results (compound, measured_target, unit_annotation, readout_number) VALUES
  ('O=C(O)CC(O)(CC(=O)O)C(=O)O [Citric acid]', 'C. elegans', '%', 18),
  ('O=C(O)c1cccnc1 [Niacin]', 'C. elegans', '%', 14),
  ('O=Cc1ccc[nH]1 [Pyrrole‐2‐carboxaldehyde]', 'C. elegans', '%', 6),
  ('COc1cc(-c2coc3cc(O)c(OC)c(O)c3c2=O)cc(O)c1OC [Irigenin]', 'C. elegans', '%', 3),
  ('CC1=CC(=O)[C@@H](O)[C@]2(C)[C@H]3[C@@H](O)[C@H](O)[C@]4(CO)OC[C@@]35[C@@H](C[C@@H]12)OC(=O)[C@H](O)[C@]54O [Yadanziolide A]', 'C. elegans', '%', 36),
  ('Clc1ccccc1C(c1ccccc1)(c1ccccc1)n1ccnc1 [Clotrimazole]', 'C. elegans', '%', 0),
  ('C/C(=C\C(=O)CC(C)C(=O)O)[C@H]1C[C@H](O)[C@@]2(C)C3=C(C(=O)C[C@]12C)[C@@]1(C)CCC(=O)C(C)(C)[C@@H]1C[C@@H]3O (some centres unmarked) [Ganoderenic acid A]', 'C. elegans', '%', 0),
  ('CC(C)=CCc1cc([C@@H]2CC(=O)c3ccc(O)c(CC=C(C)C)c3O2)ccc1O [Glabrol]', 'C. elegans', '%', 9);

# batch: return inhibition at 110 µM for each of the 6 compounds below
1. O[C@H]1[C@H](O)[C@@H](O)CN2CC[C@H](O)[C@H]12 [Castanospermine]
2. COC(=O)N[C@H](C(=O)N1CCC[C@H]1c1nc(-c2ccc(-c3ccc(-c4c[nH]c([C@@H]5CCCN5C(=O)[C@@H](NC(=O)OC)C(C)C)n4)cc3)cc2)c[nH]1)C(C)C [Daclatasvir]
3. O=c1ccc2ccc(O)c(O)c2o1 [Daphnetin]
4. COc1cc2c(cc1OC)-c1c(OC)c(OC)cc3c1[C@H](C2)N(C)CC3 [Glauci ne]
5. O=c1cc(-c2ccccc2)oc2cc(O)cc(O)c12 [Chrysin]
6. C[C@H](Cc1ccc(O)c(O)c1)[C@@H](C)Cc1ccc(O)c(O)c1 [Masoprocol]

[0, 43, 1, 11, 0, 17]

----------
# System: C. elegans
# CONDITION: Table S2, C. elegans SS assay, 110 μM, 0 h, averages of 4 data points
Would you mind telling me the reported Percentage of motility inhibition 0 h of each entry?
Numbers only, in %.

Here's what some known entries look like.
INSERT INTO measurements (molecule, unit_annotation, readout_number) VALUES
  ('C[C@@H]1O[C@@H](O[C@H]2[C@H](O[C@H]3CC[C@@]4(C)[C@@H](CC[C@]5(C)[C@@H]4CC=C4[C@@H]6CC(C)(C)CC[C@]6(C(=O)O)CC[C@]45C)[C@]3(C)CO)OC[C@H](O[C@@H]3O[C@H](CO)[C@@H](O)[C@H](O)[C@H]3O)[C@@H]2O)[C@H](O)[C@H](O)[C@H]1O', '%', 0),
  ('C=C1CCC2C(C=C(C)C(=O)C3(OC(C)=O)CC(C)C(OC(=O)c4ccccc4)C3C1OC(C)=O)C2(C)C (centres unmarked)', '%', 30),
  ('C=C[C@H]1[C@H](O[C@@H]2O[C@H](CO)[C@@H](O)[C@H](O)[C@H]2O)OC=C(C(=O)OC)[C@H]1CCOC(=O)c1cc(O)c(O)c(O)c1 [Cornuside]', '%', 0),
  ('COC1=C(C)C(=O)O[C@]12C(=O)C(C)=C1CCCCN3[C@H]([C@@H]4C[C@H](C)C(=O)O4)CC[C@@]132', '%', 0);

For the next question, use this molecule.
Look up Percentage of motility inhibition 0 h for this molecule: COC(=O)N[C@H](C(=O)N1CCC[C@H]1c1ncc(-c2ccc(-c3ccc(-c4cnc([C@@H]5CCCN5C(=O)[C@@H](NC(=O)OC)C(C)C)[nH]4)cc3)cc2)[nH]1)C(C)C.Cl.Cl [Daclatasvir (dihydrochloride)]
39
